# assay info: Intrinsic clearance in rat Hepatocyte assessed per million cells
# Assay type: ADME, tissue-based
# conditions used: hepatocytes, read-out: CLH
Give fulfilled when the value for hepatocyte CLint is at least 20 µL/min/1e6 cells. Give not fulfilled when it is less.

Reference set, count: 3
CN1CCN(CCOc2cccc(CC(=O)Nc3nc(-c4c[nH]c5ncccc45)cs3)c2)CC1 : fulfilled
CS(=O)(=O)Nc1cccc(CC(=O)Nc2nc(-c3c[nH]c4ncc(F)cc34)cs2)c1 : not fulfilled
CS(=O)(=O)Nc1cccc(CC(=O)Nc2nc(-c3c[nH]c4ncccc34)cs2)c1 : not fulfilled

Field: next compound
Threshold query (hepatocyte CLint >= 20 µL/min/1e6 cells) on CN1CCN(CCCOc2cccc(CC(=O)Nc3nc(-c4c[nH]c5ncccc45)cs3)c2)CC1
fulfilled

----------
# assay info: AUC(0 to infinity) in rat at 3 mg/kg, po
# Type: ADME, organism-based
# Design: route oral, time infinity, dose 3 mg/kg
# conditions used: in vivo
property: AUC(0-inf) (ng·h/mL)
The answer is to be given in ng·h/mL; state only the numeric part.

I have this molecule here, CN1CCN(CCOc2cccc(CC(=O)Nc3nc(-c4c[nH]c5ncccc45)cs3)c2)CC1 , and I need its recorded AUC(0-inf).
600

----------
# Tested on: THP-1
# assay info: Antimigratory activity against human THP-1 cells
# Assay type: functional, cell-based
pIC50: −log10 of the molar value.
Give 1.0 when the value for pIC50 is at least 7. Give 0.0 when it is less.

Threshold query (pIC50 >= 7) on CS(=O)(=O)Nc1cccc(CC(=O)Nc2nc(-c3c[nH]c4ncc(Cl)cc34)cs2)c1
0.0

How about CS(=O)(=O)Nc1cccc(CC(=O)Nc2nc(-c3c[nH]c4ncc(O)cc34)cs2)c1 ?
0.0

How about CN1CCN(CCOc2cccc(CC(=O)Nc3nc(-c4c[nH]c5ncc(F)cc45)cs3)c2)CC1 ?
0.0

How about CS(=O)(=O)Nc1cccc(CC(=O)Nc2nnc(-c3c[nH]c4ncccc34)s2)c1 ?
0.0

How about CS(=O)(=O)Nc1cccc(CC(=O)Nc2nc(-c3c[nH]c4ncccc34)cs2)c1 ?
1.0

----------
Consider the following molecules and their measured IC50 readings.
# Test system: THP-1
# assay info: Antimigratory activity against human THP-1 cells
# Format: functional, cell-based
The answer is to be given in nM; state only the numeric part.

The following molecules have reported results that may help.
CS(=O)(=O)Nc1cccc(CC(=O)Nc2cc(-c3c[nH]c4ncccc34)ncn2)c1 : 820
CS(=O)(=O)Nc1cccc(CC(=O)Nc2nc(-c3c[nH]c4nccc(F)c34)cs2)c1 : 80
O=C(Cc1cccc(OCCCC2CCNCC2)c1)Nc1nc(-c2c[nH]c3ncc(F)cc23)cs1 : 140

I have this molecule here, O=C(Cc1cccc(OCCCC2CCNCC2)c1)Nc1nc(-c2c[nH]c3nccc(F)c23)cs1 , and I need its recorded IC50.
50

How about CS(=O)(=O)Nc1cccc(CC(=O)Nc2nccc(-c3c[nH]c4ncccc34)n2)c1 ?
8000

----------
# assay info: Clearance in rat at 1 mg/kg, iv
# Type: ADME, organism-based
# conditions used: in vivo
Give 1.0 when the value for clearance is at least 70 mL/min/kg. Give 0.0 when it is less.

Reference set, count: 2
O=C(Cc1cccc(OCCCC2CCNCC2)c1)Nc1nc(-c2c[nH]c3ncc(F)cc23)cs1 : 0.0
CN1CCN(CCCOc2cccc(CC(=O)Nc3nc(-c4c[nH]c5ncccc45)cs3)c2)CC1 : 1.0

Threshold query (clearance >= 70 mL/min/kg) on CS(=O)(=O)Nc1cccc(CC(=O)Nc2nc(-c3c[nH]c4ncccc34)cs2)c1
0.0

How about O=C(Cc1cccc(OCCCC2CCNCC2)c1)Nc1nc(-c2c[nH]c3ncccc23)cs1 ?
1.0
